Entries annotated with measured pEC50
# measured-target: hSTING (Homo sapiens, UniProt Q86WV6, G230A/H232R/R293Q/R71H)
# Construct: host or cells: THP1-Dual KO-IFNAR2 cells
# Sequence (Q86WV6 whole entry R71H/G230A/H232R/R293Q): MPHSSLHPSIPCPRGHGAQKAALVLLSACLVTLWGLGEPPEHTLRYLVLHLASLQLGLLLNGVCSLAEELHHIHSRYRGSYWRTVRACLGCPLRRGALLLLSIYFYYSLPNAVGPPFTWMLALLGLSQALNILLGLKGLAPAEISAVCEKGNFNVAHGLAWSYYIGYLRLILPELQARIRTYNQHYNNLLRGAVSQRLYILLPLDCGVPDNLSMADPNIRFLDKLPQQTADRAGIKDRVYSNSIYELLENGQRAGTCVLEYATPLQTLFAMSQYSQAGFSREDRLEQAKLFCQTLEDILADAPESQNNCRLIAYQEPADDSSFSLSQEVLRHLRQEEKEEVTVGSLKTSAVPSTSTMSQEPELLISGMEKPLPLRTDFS
# method-notes: STING reporter assay (luciferase) in THP1-Dual KO-IFNAR2 cells stimulated with 2′3′cGAMP
# Assay type: cell-based
# condition-description: 15 μM 2′3′cGAMP, 24 h, class symbols
# Description: STING pathway activation by the compounds described herein was measured using THP1-Dual™ cells (KO-IFNAR2). […] 2 mL of solution A and 2 ml Solution B was mixed and incubated for 20 min at room temperature (RT). […] Luciferase reporter activity was then measured. EC50 values were calculated by using standard methods known in the art. […] Luciferase reporter activity was then measured. EC50 values were calculated by using standard methods known in the art.
pEC50: −log10 of the molar value.

Here's what some known entries look like.
O=C(Nc1ccc(C2CCCCC2)nc1)C(=O)Nc1c[nH]c2ncc(F)cc12 = 5.30 to 6.00
O=C(NCC1CC2C=CC1C2)C(=O)Nc1c[nH]c2cccnc12 (centres unmarked) = 4.00 to 5.30
O=C(NCc1ccc(OC(F)(F)F)c(Cl)c1)C(=O)Nc1c[nH]c2ccncc12 = 6.00 to 6.70
O=C(Nc1c[nH]c2ncc(F)cc12)C(=O)NC1CCC2(CCCC2)CC1 = 6.00 to 6.70
O=C(NCc1ccc(Cl)cc1C(F)(F)F)C(=O)Nc1c[nH]c2ccncc12 = 6.00 to 6.70

Prompt: What value of measured pEC50 is listed for Cc1ccc(CNC(=O)C(=O)Nc2c[nH]c3cc(F)cnc23)cc1C(F)(F)F ?
Completion: 6.00 to 6.70

Prompt: Again, but for Cc1ccc(CNC(=O)C(=O)Nc2c[nH]c3cccnc23)cc1C(F)(F)F
Completion: 6.00 to 6.70

Prompt: Also COc1cc2c(NC(=O)C(=O)NCc3ccc(C)c(C(F)(F)F)c3)c[nH]c2cn1 ?
Completion: 5.30 to 6.00

Prompt: Follow-up item: O=C(Nc1c[nH]c2ncc(F)cc12)C(=O)N[C@@H]1CCCC2(CCCCC2)C1 (single isomer, unassigned)
Completion: 4.00 to 5.30

Prompt: Now the compound COc1ccc(CNC(=O)C(=O)Nc2c[nH]c3ccncc23)cc1C(F)(F)F
Completion: 6.00 to 6.70
